assay_comment: Stat Signaling Pathway (AID 446);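 also: ME-180 cervical cancer cells given 40 pM IL-6 alongside compound; SIE-controlled beta-lactamase reporter measured as 460/530 nm FRET emission ratio; % is scaled to controls: 0 for no effect and ±100 for the full control effect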
test_parameters: ME-180 (cervical carcinoma) SIE beta-lactamase reporter, IL-6 stimulated, 5 h; at 17.2 µM (top of the series) unless noted
Results filed as inconclusive are left out.
Each entry below carries its reported activity, negative = inhibition.
Give just the number in %; leave the unit off.

> print(dat)
                                   compound  result.unit  value
1  COC(=O)c1ccccc1NC(=O)C1COc2ccccc2O1 (stereo unspecified)            %   2.58
2     COc1ccc(-c2nnc3sc(COc4ccccc4)nn23)cc1            %  -8.06
3    Cc1ccc(OCc2nnc(NC(=O)c3ccco3)s2)c(C)c1            %  -14.8
4  COc1cccc(N2C(=O)C(O)=C(C(C)=O)C2c2ccc(OC)c(OC)c2)c1 (stereo unspecified)            %  0.326
5  Cc1cc(=O)oc(C)c1C(=O)NCCNC(=O)c1c(C)cc(=O)oc1C            %   6.54

Per the records, this compound ( CCOC(=O)CC(=O)CSc1nnc2sc3ccccc3n12 ) has activity, negative = inhibition equal to 7.94

Per the records, this compound ( COc1ccc(/C(O)=C2/C(=O)C(=O)N(c3ncccn3)C2c2ccc(OC)c(OC)c2)cc1 (stereo unspecified) ) has activity, negative = inhibition equal to -6.81

Per the records, this compound ( COC(=O)c1cc(Br)c(=O)n(Cc2cccnc2)c1 ) has activity, negative = inhibition equal to 9.48

Per the records, this compound ( CC(=O)Nc1ccc(-c2cc3ccccc3o2)cc1 ) has activity, negative = inhibition equal to -0.606

Per the records, this compound ( CC1(C)CC(=O)C(C=NCCN2CCN(CCc3ccccc3)CC2)=C(O)C1 ) has activity, negative = inhibition equal to -3.07

Per the records, this compound ( Cc1occc1C(=O)OCC(=O)Nc1ccc(F)cc1 ) has activity, negative = inhibition equal to -3.3
